# Assay details: qHTS Assay for Lipid Storage Modulators in Drosophila S3 Cells
# Measurement context: BODIPY lipid droplet fluorescence, 18-24 h, cells fed with added oleic acid; series mostly up to 46.1 µM
Among all 320,000 compounds or so, about 2,100 (0.66%) were called active. Inconclusive results (about 53%) are left out. The call rests on the fitted dose curve; in most records, active means well fitted inhibition curve with a large enough effect in the signal ratio, with a control signal flat (not every such curve was filed as active); inconclusive means small, poorly fitted or top-dose-only effect, or effect the other way, or a change in a side signal; inactive means flat fitted curve, though single readings scatter; the % refers to the signal ratio. The full list was thinned out, with actives kept by preference.
Labels: 1 for active, 0 for inactive

{"Compound": "CN(C(=O)CSc1nc2ccccc2[nH]1)C1CCS(=O)(=O)C1 (configuration not stated)", "Group label": 0}
{"Compound": "O=C(NCCCN1CCOCC1)C1(c2ccccc2)CCOCC1", "Group label": 1}
{"Compound": "Cc1ccc2c(c1)C1CN(C)CCC1N2S(=O)(=O)c1ccc(C#N)cc1 (configuration not stated)", "Group label": 0}
{"Compound": "CC(C)(C)NC(=O)C1CCC(CNS(=O)(=O)c2cccc3nsnc23)CC1 (configuration not stated)", "Group label": 1}
{"Compound": "COc1ccc(-c2n[nH]c(=S)n2N)c(OC)c1", "Group label": 0}
{"Compound": "CCN(CC)c1ccc(/C=N/NC(=S)NC)c(O)c1", "Group label": 0}
{"Compound": "COc1ccc(-n2nc([N+](=O)[O-])c(=NCCc3ccc(OC)c(OC)c3)n2O)cc1", "Group label": 1}
{"Compound": "O=C(Cc1ccccc1Cl)NCCCn1ccnc1", "Group label": 0}
{"Compound": "Cc1ccc2nc(SCC(=O)N(C)C3CCS(=O)(=O)C3)[nH]c2c1 (configuration not stated)", "Group label": 1}
{"Compound": "CCN(CC)S(=O)(=O)c1ccc(S(=O)(=O)N2CCCC2)cc1", "Group label": 0}
{"Compound": "Cc1ccc(S(=O)(=O)C2(C(=O)NC3CCCCC3C)CC2)cc1 (configuration not stated)", "Group label": 0}
{"Compound": "COC(=O)c1ccc(Cl)c(NC(=O)CN(c2ccccc2)S(=O)(=O)c2ccc(OC)cc2)c1", "Group label": 0}
{"Compound": "CN(C(=O)CSc1nnc(-c2ccccc2)n1C)C1CCS(=O)(=O)C1 (configuration not stated)", "Group label": 0}
{"Compound": "c1ccc(-n2nnnc2Oc2cccc3cccnc23)cc1", "Group label": 0}
{"Compound": "Cc1ccc2c(c1)C1CN(C)CCC1N2S(=O)(=O)c1cccc(F)c1 (configuration not stated)", "Group label": 1}
{"Compound": "CC(C)(C)NC(=O)C1CC(=O)N(CCc2ccc(F)cc2)C1 (configuration not stated)", "Group label": 0}
{"Compound": "CCCCNCC1C(Oc2ccc(Cl)cc2)C(=O)N1c1ccccc1C (configuration not stated)", "Group label": 0}
{"Compound": "C=CCn1c(=N)n(CC(=O)OCC)c2ccccc21", "Group label": 0}
{"Compound": "O=C(c1ccc(NC(=O)C2(c3ccccc3)CCOCC2)cc1)N1CCOCC1", "Group label": 1}
{"Compound": "OCCNc1nc(NCc2ccccc2)c2ccccc2n1", "Group label": 0}
{"Compound": "CCN(CC)C1CCS(=O)(=O)C1 (configuration not stated)", "Group label": 0}
{"Compound": "CCn1c(C)c(C)c2cc(C(=O)NCCN3CCOCC3)ccc21", "Group label": 0}

These data points were gathered from PubChem BioAssay AID2685.
